study_system: CB1 (Rattus norvegicus)
Sequence (P20272 whole entry): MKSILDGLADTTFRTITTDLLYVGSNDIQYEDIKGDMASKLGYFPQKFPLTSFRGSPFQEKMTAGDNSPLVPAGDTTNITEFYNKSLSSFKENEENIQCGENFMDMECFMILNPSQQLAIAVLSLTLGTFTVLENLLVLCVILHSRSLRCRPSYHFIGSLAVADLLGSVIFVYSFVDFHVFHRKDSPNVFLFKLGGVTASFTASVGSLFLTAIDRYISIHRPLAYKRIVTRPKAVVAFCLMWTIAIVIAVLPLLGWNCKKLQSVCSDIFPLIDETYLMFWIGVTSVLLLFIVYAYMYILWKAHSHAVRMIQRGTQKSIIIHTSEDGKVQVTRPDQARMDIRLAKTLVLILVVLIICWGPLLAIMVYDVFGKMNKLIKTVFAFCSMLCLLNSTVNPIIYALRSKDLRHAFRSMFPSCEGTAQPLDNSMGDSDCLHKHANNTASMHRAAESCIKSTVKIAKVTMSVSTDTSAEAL
protocol_details: cyclic adenosine monophosphate (cAMP) assay at CB1
details: read-out: Functional Potency (EC50)
Property: EC50; scope: individual compounds
API: value field is a number in nM; no unit string.

[[record]]
compound = "C=C(C)[C@H]1CCC(CO)=C[C@@H]1c1c(O)cc(C2(CCCCCC)CC2)cc1O [Compound 4.3]"
value_unit = "nM"
recorded_measurement = 1.6


Quick check: EC50 on CB1 (Rattus norvegicus), item C=C(C)[C@H]1CCC(CO)=C[C@@H]1c1c(O)cc(C2(CCCCCC)SCCS2)cc1O [Compound 4.6] ?
267

Next entry: CCCCCCC1(c2cc(O)c([C@H]3C=C(C)[C@H]4C[C@@H]3C4(C)C)c(O)c2)SCCS1 [Compound 40.6]
21

Next entry: C=C(C)[C@H]1CCC(CO)=C[C@@H]1c1c(O)cc(C(C)(C)CCCCN2CCOCC2)cc1O [Compound 71]
1.4

Next entry: C=C(C)[C@H]1CCC(CO)=C[C@@H]1c1c(O)cc(C2(CCCCCC#N)CCC2)cc1O [Compound 34]
3.2

Next entry: C=C(C)[C@H]1CCC(CO)=C[C@@H]1c1c(O)cc(C2(CCCCCC)CCCC2)cc1O [Compound 4.4]
17
